target: Syk (Homo sapiens, UniProt P43405); assay: High Throughput Syk Biochemical Assay (KinEASE TR-FRET); details: TABLE D, 20 μM ATP, 1 μM biotinylated peptide, 0.015 nM Syk, 30 min at room temperature, read-out: IC50
measure: pIC50
On this scale, pIC50 is minus log10 of a concentration expressed in M (mol/L).

Reference set, count: 3
COc1cc(-c2cc3ncn(C)c3c(O[C@H](C)[C@H]3CNC(=O)C3)n2)cc(OC)c1OC : 8.28
COc1cc(-c2cc3ncn(C)c3c(O[C@H](C)[C@H]3CNC(=O)C3)n2)ccc1F : 7.40
COc1ccc(-c2cc3ncn(C4COC4)c3c(O[C@H](C)[C@H]3CNC(=O)C3)n2)cc1OC : 7.27

pIC50 reported for this compound CC(C)n1cc(-c2cc3ncn(C)c3c(O[C@H](C)[C@H]3CNC(=O)C3)n2)cn1 : 8.06

pIC50 reported for this compound C[C@@H](Oc1nc(-c2ccc3c(c2)OCCN3C)cc2ncn(C)c12)[C@H]1CNC(=O)C1 : 8.05

pIC50 reported for this compound C[C@@H](Oc1nc(-c2cnn(C3COC3)c2)cc2ncn(C)c12)[C@H]1CNC(=O)C1 : 7.63

pIC50 reported for this compound COc1ccc(-c2cc(O[C@H](C)[C@H]3CNC(=O)C3)c3c(c2)ncn3C)cc1OC : 7.42

pIC50 reported for this compound COc1ccc(-c2cc3ncn(C)c3c(O[C@H](C)[C@H]3CNC(=O)C3)n2)cc1C#N : 7.78

pIC50 reported for this compound C[C@@H](Oc1nc(-c2ccc(N3CCN(S(C)(=O)=O)CC3)cc2)cc2ncn(C)c12)[C@H]1CNC(=O)C1 : 8.35

###

target: Syk (Homo sapiens, UniProt P43405); experiment: High Throughput Syk Biochemical Assay (KinEASE TR-FRET); conditions: table 'ALL NEW COMPOUNDS IN 2014', 20 μM ATP, 1 μM biotinylated peptide, 0.015 nM Syk, 30 min at room temperature, read-out: Syk IC50
Below, each entry is listed alongside its reported IC50.
Numbers only; they are read as nM.

Reference set, count: 5
Cc1cc(-c2cc3ncn(C4CC4)c3c(O[C@H](C)[C@H]3CNC(=O)C3)n2)ccc1N1CCN(C2COC2)CC1 : 1.44
C[C@@H](Oc1cc(-c2ccncn2)cc2ncn(C3CC3)c12)[C@H]1CNC(=O)C1 : 24.6
C[C@@H](Oc1cc(-c2ccc3c(n2)NCCO3)cc2ncn(C3CC3)c12)[C@H]1CNC(=O)C1 : 4.76
C[C@@H](Oc1cc(-c2ccc(N3CCN(C4COC4)CC3)c(F)c2)cc2ncn(C3CC3)c12)[C@H]1CNC(=O)C1 : 3.08
C[C@@H](Oc1nc(-c2ccncc2)cc2ncn(C3CC3)c12)[C@H]1CNC(=O)C1 : 11.9

Here C[C@@H](Oc1cc(-c2ccnn2C2CCOCC2)cc2ncn(C3CC3)c12)[C@H]1CNC(=O)C1 was tested on Syk (Homo sapiens, UniProt P43405), and its IC50 came to 411

Here C[C@@H](Oc1nc(-c2ccc(N3CCN(S(=O)(=O)C4CC4)CC3)cc2)cc2ncn(C3CC3)c12)[C@H]1CNC(=O)C1 was tested on Syk (Homo sapiens, UniProt P43405), and its IC50 came to 1.3

Here CCS(=O)(=O)N1CCN(c2ccc(-c3cc4ncn(C5CC5)c4c(O[C@H](C)[C@H]4CNC(=O)C4)n3)cc2)CC1 was tested on Syk (Homo sapiens, UniProt P43405), and its IC50 came to 1.05

###

Target: Syk (Homo sapiens)
Assay: High Throughput Syk Biochemical Assay (KinEASE TR-FRET)
Conditions: TABLE D, 20 μM ATP, 1 μM biotinylated peptide, 0.015 nM Syk, 30 min at room temperature, read-out: IC50
Procedure: High Throughput Syk Biochemical Assay Syk activity was measured using KinEASE (Cisbio), a time-resolved fluorescence resonance energy transfer (TR-FRET) immunoassay. In this assay. Syk-catalyzes the phosporylation of a XL665-labeled peptide substrate. Europium conjugated phospho-tyrosine specific antibody binds the resulting phosphorylated peptide. Formation of phosphorylated peptide is quantified by TR-FRET with Europium as the donor and XL665 the acceptor in a 2-step endpoint assay. […]
Below, each entry is listed alongside its reported IC50.
Numbers only; they are read as nM.

Reference set, count: 2
C[C@@H](Oc1nc(-c2ccc(N3CCOCC3)nc2)cc2ncn(C)c12)[C@H]1CNC(=O)C1 : 11.5
Cc1nc2cc(-c3cc4ncn(C)c4c(O[C@H](C)[C@H]4CNC(=O)C4)n3)ccc2s1 : 12.4

IC50 reported for this compound C[C@@H](Oc1nc(-c2cnn(C3CC3)c2)cc2ncn(C)c12)[C@H]1CNC(=O)C1 : 14

IC50 reported for this compound Cc1nn(C)c2ccc(-c3cc4ncn(C)c4c(O[C@H](C)[C@H]4CNC(=O)C4)n3)cc12 : 10.5

IC50 reported for this compound C[C@@H](Oc1nc(-c2cnn(CC(F)(F)F)c2)cc2ncn(C)c12)[C@H]1CNC(=O)C1 : 20.8

IC50 reported for this compound COC[C@@H](Oc1nc(-c2cnn(C(C)(C)C)c2)cc2ncn(C)c12)[C@H]1CNC(=O)C1 : 186

IC50 reported for this compound Cc1cc(-c2cc3ncn(C)c3c(O[C@H](C)[C@H]3CNC(=O)C3)n2)ccc1N(C)C : 5.31

IC50 reported for this compound COc1ccc(-c2cc3nc(C)n(C(C)C)c3c(O[C@H](C)[C@H]3CNC(=O)C3)n2)cc1OC : 317

IC50 reported for this compound C[C@@H](Oc1nc(-c2ccc3c(c2)C(=O)NCCO3)cc2ncn(C)c12)[C@H]1CNC(=O)C1 : 30.6

IC50 reported for this compound C[C@@H](Oc1nc(-c2cnn3ccccc23)cc2ncn(C)c12)[C@H]1CNC(=O)C1 : 12.7

IC50 reported for this compound C[C@@H](Oc1cc(-c2cccc(C(F)(F)F)n2)cc2ncn(C)c12)[C@H]1CNC(=O)C1 : 191

IC50 reported for this compound C[C@@H](Oc1cc(-c2cnn(CC(F)F)c2)cc2ncsc12)[C@H]1CNC(=O)C1 (stereo in doubt) : 1.24

IC50 reported for this compound C[C@@H](Oc1cc(-c2cccc3scnc23)cc2ncsc12)[C@H]1CNC(=O)C1 : 105

IC50 reported for this compound C[C@@H](Oc1cc(-c2ccc(N3CCOCC3)cc2)cn2ncc(Cl)c12)[C@H]1CNC(=O)C1 : 0.31

IC50 reported for this compound C[C@@H](Oc1nc(-c2cccc3scnc23)cc2ncn(C)c12)[C@H]1CNC(=O)C1 : 184

IC50 reported for this compound COc1ccc(-c2cc3ncn(CC(F)F)c3c(O[C@H](C)[C@H]3CNC(=O)C3)n2)cc1OC : 19.5

IC50 reported for this compound C[C@@H](Oc1nc(-c2ccc3c(c2)NCCO3)cc2ncn(C)c12)[C@H]1CNC(=O)C1 : 4.03

IC50 reported for this compound C[C@@H](Oc1nc(-c2cccc(S(C)(=O)=O)c2)cc2ncn(C)c12)[C@H]1CNC(=O)C1 : 42.5

###

target: Syk (Homo sapiens); assay: High Throughput Syk Biochemical Assay (KinEASE TR-FRET); conditions: table 'ALL NEW COMPOUNDS IN 2014', 20 μM ATP, 1 μM biotinylated peptide, 0.015 nM Syk, 30 min at room temperature, read-out: Syk IC50
measure: pIC50
On this scale, pIC50 is minus log10 of a concentration expressed in M (mol/L).

C[C@@H](Oc1nc(-c2cnc(C3CCOCC3)s2)cc2ncn(C3CC3)c12)[C@H]1CNC(=O)C1 : 8.45
C[C@@H](Oc1nc(-c2ccc(N3CCN(C4COC4)CC3)c(Cl)c2)cc2ncn(C3CC3)c12)[C@H]1CNC(=O)C1 : 8.56

Let us examine a further case.
Here C[C@@H](Oc1nc(-c2ccc(N3CC4CC(C3)N4)cc2)cc2ncn(C3CC3)c12)[C@H]1CNC(=O)C1 was tested on Syk (Homo sapiens), and its pIC50 came to 8.64

###

Below, each entry is listed alongside its reported pIC50.
target: Syk (Homo sapiens, UniProt P43405); assay: High Throughput Syk Biochemical Assay (KinEASE TR-FRET); settings: table 'ALL NEW COMPOUNDS IN 2014', 20 μM ATP, 1 μM biotinylated peptide, 0.015 nM Syk, 30 min at room temperature, read-out: Syk IC50
On this scale, pIC50 is minus log10 of a concentration expressed in M (mol/L).

C[C@@H](Oc1cc(-c2ccn(C(C)(C)C)n2)cc2ncn(C3CC3)c12)[C@H]1CNC(=O)C1 : 8.30
C[C@@H](Oc1nc(-c2ccc3c(c2)N(C)C(=O)C32CN(C)C2)cc2ncn(C3CC3)c12)[C@H]1CNC(=O)C1 : 8.12

Here C[C@@H](Oc1nc(-c2ccc(N3CCN(C4COC4)CC3)c(C#N)c2)cc2ncn(C3CC3)c12)[C@H]1CNC(=O)C1 was tested on Syk (Homo sapiens, UniProt P43405), and its pIC50 came to 8.28
